- Target Under Test: Trypsin
- Assay Protocol: isolated enzyme kinetic fluorogenic substrate IC50 assay
- Cond: 5 min pre‐incubation
pIC50: −log10 of the molar value.
Assay Readout: pIC50

Prompt: Give recorded pIC50. COCc1nn(Cc2ccc(Cn3ccccc3=O)cc2)cc1C(=O)NCc1nccc(OC)c1F [KVD900]
Response: < 4.40

----------
- Target Under Test: Tissue plasminogen activator (Homo sapiens)
- Sequence (P00750 36-562): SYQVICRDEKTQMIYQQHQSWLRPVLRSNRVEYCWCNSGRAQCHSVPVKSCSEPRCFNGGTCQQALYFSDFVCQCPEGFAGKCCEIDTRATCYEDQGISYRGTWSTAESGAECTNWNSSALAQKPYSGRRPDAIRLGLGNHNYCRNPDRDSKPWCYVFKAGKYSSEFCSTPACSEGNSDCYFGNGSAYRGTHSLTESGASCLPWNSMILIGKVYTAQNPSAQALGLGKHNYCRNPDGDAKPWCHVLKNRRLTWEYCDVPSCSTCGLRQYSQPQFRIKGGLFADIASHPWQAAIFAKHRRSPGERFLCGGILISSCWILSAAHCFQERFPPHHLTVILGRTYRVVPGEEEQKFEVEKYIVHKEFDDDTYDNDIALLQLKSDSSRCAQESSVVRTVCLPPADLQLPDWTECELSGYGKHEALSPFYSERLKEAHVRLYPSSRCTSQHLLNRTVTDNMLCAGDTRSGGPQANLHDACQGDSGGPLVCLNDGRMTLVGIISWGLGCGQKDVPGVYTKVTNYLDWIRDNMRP
- Assay Protocol: isolated enzyme kinetic fluorogenic substrate IC50 assay
- Cond: 5 min pre‐incubation
Assay Readout: IC50

Prompt: Indicate its recorded IC50; the compound in question is `COCc1nn(Cc2ccc(Cn3ccccc3=O)cc2)cc1C(=O)NCc1nccc(OC)c1F`
Response: > 10 µM

----------
- Target Under Test: UniProtKB P00747
- Sequence (P00747 581-810 limits assumed): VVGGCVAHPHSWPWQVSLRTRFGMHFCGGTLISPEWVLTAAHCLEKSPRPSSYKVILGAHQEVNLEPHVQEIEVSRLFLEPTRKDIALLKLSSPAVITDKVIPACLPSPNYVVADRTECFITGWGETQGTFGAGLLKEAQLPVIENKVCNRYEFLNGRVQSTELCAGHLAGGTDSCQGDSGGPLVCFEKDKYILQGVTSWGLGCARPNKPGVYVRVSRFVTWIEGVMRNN
- Sequence (P00747 97-580 partner limits assumed): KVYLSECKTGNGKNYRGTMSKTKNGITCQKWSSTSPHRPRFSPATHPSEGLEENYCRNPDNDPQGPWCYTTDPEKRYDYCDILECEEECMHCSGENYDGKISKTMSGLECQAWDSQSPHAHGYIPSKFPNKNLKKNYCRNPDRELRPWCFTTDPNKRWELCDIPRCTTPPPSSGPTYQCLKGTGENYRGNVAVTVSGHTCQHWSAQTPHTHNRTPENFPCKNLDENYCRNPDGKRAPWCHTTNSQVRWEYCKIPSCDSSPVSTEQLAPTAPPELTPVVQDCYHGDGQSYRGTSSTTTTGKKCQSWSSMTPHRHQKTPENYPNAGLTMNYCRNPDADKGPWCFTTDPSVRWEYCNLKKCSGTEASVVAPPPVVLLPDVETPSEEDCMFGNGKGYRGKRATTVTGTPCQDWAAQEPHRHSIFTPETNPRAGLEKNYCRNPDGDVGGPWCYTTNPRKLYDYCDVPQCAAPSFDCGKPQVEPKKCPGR
- Assay Protocol: isolated enzyme kinetic fluorogenic substrate IC50 assay
- Cond: 5 min pre‐incubation
Assay Readout: IC50

Prompt: State its IC50: `COCc1nn(Cc2ccc(Cn3ccccc3=O)cc2)cc1C(=O)NCc1nccc(OC)c1F`
Response: > 40 µM

----------
- Target Under Test: UniProt:P00734
- Assay Protocol: isolated enzyme kinetic fluorogenic substrate IC50 assay
- Cond: 5 min pre‐incubation
Assay Readout: IC50

Prompt: Check UniProt:P00734 data and give IC50 for `COCc1nn(Cc2ccc(Cn3ccccc3=O)cc2)cc1C(=O)NCc1nccc(OC)c1F` .
Response: > 40 µM

Every entry's value here was drawn from paper PMC9544254.
